assay: chemical genetic growth profiling, strain panel (AID 1159580);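 further: tested at 20 µM; growth read once vehicle control cultures reached saturation at 30 °C; 1 = growth at the plate median or of vehicle wells; lower values mean less growth of the strain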; details: S. cerevisiae deletion strains, growth OD, locus YOR080W, strain dia2, stronger effect = lower value
Hit rate of the full screen: of about 5,500 compounds, about 2,000 (36%) were called active. About 18% were inconclusive and are not listed. This is one part of the list.
Reported property: normalized growth
// no unit, no text: just the number

Ask: Consider the compound COc1ccc(-c2cc(=O)c3c(O)c(OC)c(OC)c(OC)c3o2)cc1 and give its measured normalized growth.
Reply: 0.984

Ask: Consider the compound CC(=O)O[C@H]1C[C@@]2(C)[C@H](c3ccoc3)OC(=O)[C@H]3O[C@]32[C@@]2(C)C1[C@]1(C)C(C[C@H]2OC(C)=O)C(C)(C)[C@H](OC(C)=O)C[C@@H]1OC(C)=O (some centres not stated) and give its measured normalized growth.
Reply: 0.963

Ask: Consider the compound COc1cc([C@@H]2c3cc4c(cc3C(O[C@@H]3O[C@@H]5CO[C@@H](c6cccs6)OC5[C@H](O)[C@H]3O)C3COC(=O)[C@@H]32)OCO4)cc(OC)c1O (some centres not stated) and give its measured normalized growth.
Reply: 0.971

Ask: Consider the compound FC(F)(F)C(Cl)Br (configuration not stated) and give its measured normalized growth.
Reply: 1.02

Ask: Consider the compound O=C1CN2Cc3c(ccc(Cl)c3Cl)N=C2N1 and give its measured normalized growth.
Reply: 0.963

Ask: Consider the compound CC(C)c1ccc2c(c1O)CC[C@H]1C3=C(CC[C@]21C)C(=O)OC3 and give its measured normalized growth.
Reply: 0.986

Ask: Consider the compound CCC(CCC(C)[C@H]1CCC2C3CC=C4C[C@@H](O)CC[C@]4(C)C3CC[C@@]21C)C(C)C (some centres not stated) and give its measured normalized growth.
Reply: 1.02

Ask: Consider the compound CC1=NCCc2c1[nH]c1cc(O)ccc21 and give its measured normalized growth.
Reply: 1.01

Ask: Consider the compound COc1ccc(-c2cc(=O)c3ccccc3o2)cc1OC and give its measured normalized growth.
Reply: 0.928

Ask: Consider the compound CC(=O)O.CC(=O)O.[Cd] and give its measured normalized growth.
Reply: 0.851

Ask: Consider the compound CC(=O)N(O)CCCCCNC(=O)CCC(=O)N(O)CCCCCNC(=O)CCC(=O)N(O)CCCCCN and give its measured normalized growth.
Reply: 0.996

Ask: Consider the compound COc1ccc(-c2cc(=O)c3cc(OC)ccc3o2)cc1 and give its measured normalized growth.
Reply: 0.961

Ask: Consider the compound CC(=O)O[C@@H]1CC2C(C)(C)CCC(=O)[C@]2(C)C2CC[C@@]3(C)[C@H](c4ccoc4)OC(=O)C4OC43[C@@]21C (some centres not stated) and give its measured normalized growth.
Reply: 1

Ask: Consider the compound COc1c(O)cccc1O and give its measured normalized growth.
Reply: 1.03

Ask: Consider the compound COc1ccc(-c2cc(=O)c3ccccc3o2)cc1 and give its measured normalized growth.
Reply: 0.906

Ask: Consider the compound C=C1C(N)CC2CC1C2(C)C (configuration not stated) and give its measured normalized growth.
Reply: 0.998

Ask: Consider the compound CC(=O)O[C@H]1C[C@@H](O)C(C)(C)C2C[C@@H](OC(C)=O)[C@]3(C)C(CC[C@@]4(C)[C@H](c5ccoc5)OC(=O)C5OC543)[C@]21C (some centres not stated) and give its measured normalized growth.
Reply: 0.998

Ask: Consider the compound COc1c(O)cc2c(-c3ccccc3)cc(=O)oc2c1OC and give its measured normalized growth.
Reply: 1.02

Ask: Consider the compound CN1CCOC(c2ccccc2)c2ccccc2C1 (configuration not stated) and give its measured normalized growth.
Reply: 0.989

Ask: Consider the compound COc1ccc(-c2cc(=O)c3c(OC)c(OC)c(OC)c(OC)c3o2)cc1 and give its measured normalized growth.
Reply: 0.992

Ask: Consider the compound Nc1nc(N)c2nc(-c3ccccc3)c(N)nc2n1 and give its measured normalized growth.
Reply: 1.01

Ask: Consider the compound Cc1cc2cc3c(C)cc(=O)oc3c(C)c2o1 and give its measured normalized growth.
Reply: 1
